Hello, the source for this data is PubChem BioAssay AID588462, in case you need it.

tested on: Protein-arginine deiminase type-3 (Homo sapiens) (UniProt Q9ULW8)
Sequence (Q9ULW8 whole entry, looked up): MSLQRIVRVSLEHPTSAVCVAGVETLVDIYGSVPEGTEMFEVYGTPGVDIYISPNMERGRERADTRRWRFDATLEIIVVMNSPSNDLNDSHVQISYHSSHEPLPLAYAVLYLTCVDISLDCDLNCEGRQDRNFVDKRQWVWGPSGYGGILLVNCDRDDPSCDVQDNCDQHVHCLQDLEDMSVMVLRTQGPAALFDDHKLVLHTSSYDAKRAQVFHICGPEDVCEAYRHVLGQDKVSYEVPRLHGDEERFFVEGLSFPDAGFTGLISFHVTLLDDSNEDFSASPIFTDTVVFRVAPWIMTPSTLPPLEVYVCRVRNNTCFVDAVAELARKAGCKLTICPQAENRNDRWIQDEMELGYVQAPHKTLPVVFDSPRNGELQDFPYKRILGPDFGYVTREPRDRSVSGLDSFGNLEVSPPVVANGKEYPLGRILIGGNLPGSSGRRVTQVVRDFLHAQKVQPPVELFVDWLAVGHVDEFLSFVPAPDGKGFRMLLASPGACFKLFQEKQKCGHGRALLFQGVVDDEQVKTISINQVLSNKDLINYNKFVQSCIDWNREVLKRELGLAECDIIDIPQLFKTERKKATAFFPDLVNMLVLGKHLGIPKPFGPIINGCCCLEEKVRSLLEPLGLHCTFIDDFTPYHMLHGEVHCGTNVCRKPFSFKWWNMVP
assay notes: PAD1-3 enzyme inhibition potency, late-stage follow-up, biochemical, colorimetric, BAEE substrate, recombinant PAD1-3 (AID 588462)
measurement parameters: recombinant PAD1-3, BAEE citrullination, colorimetric absorbance; PAD3
result type: pIC50
Bear in mind: pIC50 is minus log10 of a mol/L concentration; give just that figure.

Look up pIC50 with Protein-arginine deiminase type-3 (Homo sapiens) (UniProt Q9ULW8) for this molecule: COC1=C(N)C(=O)c2nc(-c3nc(C(=O)O)c(C)c(-c4ccc(OC)c(OC)c4O)c3N)ccc2C1=O 6.37
